- ASSAY COMMENT: differential scanning calorimetry (DSC), thermal stability
- Type: physicochemical
- ASSAY SETUP: thermal decomposition
Each entry below carries its reported Tm dec. (° C.).
METRIC NAME: Tm dec. (° C.) (°C)

1. Fc1c(F)c(F)c(C2(c3c(F)c(F)c(F)c(F)c3F)OOC3(O2)C2CC4CC(C2)CC3C4)c(F)c1F (stereo not drawn) [OZ45]
133.7
2. c1ccc(C2(c3ccccc3)OOC3(O2)C2CC4CC(C2)CC3C4)cc1 (stereo not drawn) [OZ42]
159.1
3. O=C1CCC2(CC1)OOC1(O2)C2CC3CC(C2)CC1C3 (stereo not drawn) [OZ05]
156.3
4. c1ccc2c(c1)CCCC21OOC2(O1)C1CC3CC(C1)CC2C3 (stereo not drawn) [OZ84]
164.5
5. C1C2CC3CC1CC(C2)C31OOC2(O1)C1CC3CC(C1)CC2C3 (stereo not drawn) [OZ04]
150.8
6. CC(=O)N1CCC2(CC1)OOC1(O2)C2CC3CC(C2)CC1C3 (stereo not drawn) [OZ49]
155.7
7. O=C(O)CON=C1CCC2(CC1)OOC1(O2)C2CC3CC(C2)CC1C3 (stereo not drawn) [OZ54]
149.3
8. O=S(=O)(c1ccc(F)cc1)N1CCC2(CC1)OOC1(O2)C2CC3CC(C2)CC1C3 (stereo not drawn) [OZ86]
153.0
9. Cc1ccc(S(=O)(=O)NN=C2CCC3(CC2)OOC2(O3)C3CC4CC(C3)CC2C4)cc1 (stereo not drawn) [OZ39]
146.9
